# Tested on: SW-620
# PROTOCOL DETAILS: NCI tumour cell line growth inhibition, 48 h
Activity calls are given as the source filed them. No stated cut-off is given here; in the data, active = GI50 up to about 1.1 µM and inactive = higher. Non-standard residues stand in square brackets, D forms with d. Residues, ends and D or L forms follow the SMILES beside them. *: point of attachment. Bn2Val = CC(C)[C@@H](C(=O)*)N(Cc1ccccc1)Cc1ccccc1; NH(4-Cl-benzyl) = Clc1ccc(CN*)cc1; NMeV = CN[C@H](C(=O)O)C(C)C; dNMeA = CN[C@H](C)C(=O)O
Possible outcomes: yes (1) for active, no (0) for inactive

{"MOLECULE": "c1ccc(C[P+]2(c3ccccc3)c3ccccc3-c3ccccc32)cc1", "CAT": "no (0)"}
{"MOLECULE": "CCOC(=O)c1cn(C)c(=S)n2c1nc1ccccc12", "CAT": "no (0)"}
{"MOLECULE": "C[C@@H](NC(=O)Nc1cccc(C(=O)Nc2cc(C(C)(C)C)ccc2C(=O)O)n1)c1ccccc1", "CAT": "no (0)"}
{"MOLECULE": "CCOC(=O)c1ncn2c1[nH]c(=S)c1ccccc12", "CAT": "no (0)"}
{"MOLECULE": "O=C1CC(c2ccc(Cl)cc2)=Nc2ccccc2N1", "CAT": "no (0)"}
{"MOLECULE": "CCOC(=O)Nc1cc2c(c(N)n1)N=C(c1ccc(OC)cc1)CN2", "CAT": "yes (1)"}
{"MOLECULE": "CC(C)[C@H](NC(=O)[C@H](C(C)C)N(Cc1ccccc1)Cc1ccccc1)C(=O)N(C)[C@H](C(=O)N1CCC[C@H]1C(=O)N(C)[C@H](C)C(=O)NCc1ccc(Cl)cc1)C(C)C (Bn2Val-V[NMeV]P[dNMeA]-{NH(4-Cl-benzyl)})", "CAT": "no (0)"}
{"MOLECULE": "Cc1nn(C(=O)c2ccc(Cl)cc2)c2c1C(/C=C/c1ccccc1)SC(=N)N2 (centres undefined)", "CAT": "no (0)"}
{"MOLECULE": "CSc1nc(SC)c2c(C)c(Br)[nH]c2n1", "CAT": "no (0)"}

----------
# Tested on: HCC 2998
# PROTOCOL DETAILS: NCI tumour cell line growth inhibition, 48 h
The source made the active and inactive calls. No stated cut-off is given here; in the data, active = GI50 up to about 1.1 µM and inactive = higher.
Catalogue of GI50 values
RESULT TYPE: GI50

{"COMPOUND": "OCC(O)C(Cl)CCl (centres undefined)", "OBSERVED VALUE": "> 100 µM (inactive)"}
{"COMPOUND": "CCOC(=O)c1c(-c2ccccc2)[nH]c2ccc(Cl)cc2c1=O", "OBSERVED VALUE": "37.9 µM (inactive)"}
{"COMPOUND": "CCOC(=O)C1N(S(=O)(=O)c2ccc(C)cc2)CCC12c1ccccc1N(C(C)=O)C2C(/C=C/C(=O)OC)=C/C(=O)OC (centres undefined)", "OBSERVED VALUE": "> 100 µM (inactive)"}
{"COMPOUND": "O=C(O)Cc1ccc(Oc2nc3ccccc3nc2-c2cccs2)cc1", "OBSERVED VALUE": "57.4 µM (inactive)"}
{"COMPOUND": "O=C(N/N=C\\c1ccccc1)Nc1cccc2ccccc12", "OBSERVED VALUE": "80.2 µM (inactive)"}
{"COMPOUND": "CCOC(=O)c1ccc(N2C(=O)Cc3ccccc3C2=O)cc1", "OBSERVED VALUE": "> 100 µM (inactive)"}
{"COMPOUND": "O=C1SC(SCc2ccccc2)=NC12CC2c1ccccc1 (centres undefined)", "OBSERVED VALUE": "7.62 µM (inactive)"}
{"COMPOUND": "COc1cc(C2=C(C#N)C(N)OC3=C2COc2ccccc23)cc(OC)c1OC (centres undefined)", "OBSERVED VALUE": "14.4 µM (inactive)"}
{"COMPOUND": "c1ccc(C[P+]2(c3ccccc3)c3ccccc3-c3ccccc32)cc1", "OBSERVED VALUE": "> 100 µM (inactive)"}
{"COMPOUND": "CC1(C)OCC(C2OC(N3O[C@H](CI)C[C@@H]3c3ccccc3)C3OC(C)(C)OC23)O1 (some centres undefined)", "OBSERVED VALUE": "> 100 µM (inactive)"}
{"COMPOUND": "COc1ccc2[nH]c3c(C)cc([N+](=O)[O-])c(C)c3c2c1", "OBSERVED VALUE": "25.4 µM (inactive)"}
{"COMPOUND": "COc1ccccc1C1ON=C(c2ccc([N+](=O)[O-])cc2)N1C12CC3CC(CC(C3)C1)C2 (centres undefined)", "OBSERVED VALUE": "> 100 µM (inactive)"}
{"COMPOUND": "Nc1nc(O)nc2sc3c(c12)CCCC3", "OBSERVED VALUE": "82 µM (inactive)"}
{"COMPOUND": "CC(=O)OCC1OC(N2C(=O)[C@@H](Oc3ccccc3)[C@H]2/C=C/c2ccccc2)C(OC(C)=O)C(OC(C)=O)C1OC(C)=O (some centres undefined)", "OBSERVED VALUE": "> 100 µM (inactive)"}
{"COMPOUND": "Brc1ccc(N2C[N+](c3ccc(Br)cc3)=NC(c3ccccc3)=N2)cc1", "OBSERVED VALUE": "15.4 µM (inactive)"}
{"COMPOUND": "Cc1cc(OCc2nnc3n2N=C(c2cc(F)c(Cl)cc2Cl)/C(=C/c2ccc(-c4ccc(Cl)cc4)o2)S3)ccc1Cl", "OBSERVED VALUE": "19 µM (inactive)"}
{"COMPOUND": "O=C(O)C1(Cc2ccccc2)Cc2ccccc2C1", "OBSERVED VALUE": "> 100 µM (inactive)"}
{"COMPOUND": "C=C1[C@@H](OC(C)=O)/C=C/C2C3C(=O)[C@@](C)(OC(C)=O)[C@H]([C@H](OC(C)=O)[C@]4(O)[C@@H](C)C(=O)O[C@H]4[C@H]1Cl)[C@@]23C (some centres undefined)", "OBSERVED VALUE": "> 100 µM (inactive)"}
{"COMPOUND": "Cc1cc(Cl)cc2c1NC(=O)C2(O)CC(=O)c1ccco1 (centres undefined)", "OBSERVED VALUE": "> 100 µM (inactive)"}
